system.tested: protein-protein interaction between SOS1 and KRAS G12D (Homo sapiens (Human), UniProt Q07889)
Sequence (Q07889 564-1049, stated change not applied): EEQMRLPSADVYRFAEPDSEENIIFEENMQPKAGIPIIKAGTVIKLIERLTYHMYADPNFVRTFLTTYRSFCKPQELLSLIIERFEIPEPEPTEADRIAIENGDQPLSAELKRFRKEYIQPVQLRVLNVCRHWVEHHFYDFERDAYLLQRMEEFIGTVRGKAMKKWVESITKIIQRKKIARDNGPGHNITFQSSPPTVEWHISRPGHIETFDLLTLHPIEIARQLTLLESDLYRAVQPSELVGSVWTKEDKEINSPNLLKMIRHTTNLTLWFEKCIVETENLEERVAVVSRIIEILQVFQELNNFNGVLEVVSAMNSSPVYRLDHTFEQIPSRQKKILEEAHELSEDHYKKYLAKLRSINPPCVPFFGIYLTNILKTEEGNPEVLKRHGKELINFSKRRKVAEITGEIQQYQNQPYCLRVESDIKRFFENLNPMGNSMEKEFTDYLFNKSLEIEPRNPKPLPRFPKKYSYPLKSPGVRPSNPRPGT
assay.info: KRAS::SOS1 AlphaScreen Binding Assay
settings: Table 20; KRAS::SOS1 AlphaScreen (SOS1 / KRAS G12D)
The compounds listed here are annotated with their pIC50.
Note on pIC50: it is the negative log10 of concentration, concentration in mol/L.

- compound: "C[C@@H](Nc1ncnc2cc(=O)n(C3(C(F)(F)F)CCOC3)cc12)c1cccc(C(F)F)c1F (some centres unmarked) [I-72]"
  pIC50: 7.96
- compound: "Cc1nc(N[C@H](C)c2cccc(C(F)F)c2F)c2cn([C@H](C)C(F)(F)F)c(=O)cc2n1 [I-10]"
  pIC50: 7.96
- compound: "Cc1nc(N[C@H](C)c2cccc(C(F)(F)C(C)(C)O)c2F)c2cn(C3(C(F)F)CC3)c(=O)c(F)c2n1 [I-89]"
  pIC50: 8.70
- compound: "Cc1nc(N[C@H](C)c2cccc3c2CCC3(F)F)c2cn(C3(C)CC3)c(=O)cc2n1 [I-57]"
  pIC50: 8.70
- compound: "Cc1nc(N[C@H](C)c2cccc(C(F)F)c2F)c2cn(C3(C)CCC3)c(=O)cc2n1 [I-11]"
  pIC50: 8.30

So what does the record say about pIC50 for Cc1nc(N[C@H](C)c2cccc(C(F)(F)F)c2C)c2cn(C3CCOCC3)c(=O)cc2n1 [I-49] ?
8.22

Another compound to look at: Cc1nc(N[C@H](C)c2cccc(C(F)(F)F)c2C)c2cn([C@H]3[C@@H]4COC[C@@H]43)c(=O)cc2n1 [I-40]
8.05

Another compound to look at: Cc1nc(N[C@H](C)c2cccc(C(F)F)c2F)c2cn(C3(C(F)(F)F)CC3)c(=O)cc2n1 [I-4]
8.10

====

The compounds listed here are annotated with their HLM [% QH].
assay.info: Metabolic (microsomal) stability assay, human liver microsomes (HLM)
Format: in vitro ADME
settings: 1 μM test compound, 37° C.

Worked examples follow.
- compound: "Cc1nc(N[C@H](C)c2cccc(C(F)F)c2F)c2cn(C3(C)CC(F)(F)C3)c(=O)cc2n1 [I-14]"
  HLM [% QH]: "27 % QH"
- compound: "Cc1c(=O)n(C23CC(F)(C2)C3)cc2c(N[C@H](C)c3cccc(C(F)F)c3F)ncnc12 [I-170]"
  HLM [% QH]: "<24 % QH"

So what does the record say about HLM [% QH] for Cc1nc(N[C@H](C)c2cccc3c2OCC3(F)F)c2cn(C3(C)CC3)c(=O)cc2n1 [I-101] ?
36 % QH

Another compound to look at: Cc1nc(N[C@H](C)c2cccc(C(F)(F)C(C)(C)O)c2F)c2cn(C3(C)CC3)c(=O)c(F)c2n1 [I-88]
24 % QH

Another compound to look at: Cc1nc(N[C@H](C)c2cccc(C(F)(F)F)c2F)c2cn(C3(C(F)F)CC3)c(=O)cc2n1 [I-98]
<24 % QH

Another compound to look at: Cc1nc(N[C@H](C)c2cccc(C(F)F)c2F)c2cn([C@H]3C[C@@H]3C(F)F)c(=O)c(F)c2n1 [I-83]
<24 % QH

Another compound to look at: C[C@@H](Nc1ncnc2cc(=O)n([C@H]3C[C@H](F)C3)cc12)c1cccc(C(F)F)c1F [I-69]
<24 % QH

Another compound to look at: C[C@@H](Nc1ncnc2cc(=O)n(C34CC(F)(C3)C4)cc12)c1cccc(C(F)F)c1F [I-71]
<24 % QH

====

system.tested: protein-protein interaction between SOS1 and KRAS G12D (Homo sapiens (Human), UniProt Q07889)
assay.info: KRAS::SOS1 AlphaScreen Binding Assay
settings: Table 20; KRAS::SOS1 AlphaScreen (SOS1 / KRAS G12D)
pIC50: −log10 of the molar value.
Given measured pIC50, output true if it is greater than or equal to 8 and false if not.

Recorded results for 2 compounds are shown here.
- chem.smiles: "Cc1nc(N[C@H](C)c2cccc(C(F)F)c2F)c2cn(C3(CF)CC3)c(=O)cc2n1"
  assigned.class: "true"
- chem.smiles: "Cc1nc(N[C@H](C)c2cccc(C(F)(F)F)c2C)c2cn(C3(C)CC(F)(F)C3)c(=O)cc2n1"
  assigned.class: "false"

Can "Cc1nc(N[C@H](C)c2cccc(C(F)F)c2C)c2cn(C3(C)CCC3)c(=O)cc2n1" be said to have pIC50 at or above 8?
true

====

The molecules listed here are annotated with their pIC50.
system.tested: protein-protein interaction between SOS1 and KRAS G12D (Homo sapiens (Human))
assay.info: KRAS::SOS1 AlphaScreen Binding Assay
settings: Table 20; KRAS::SOS1 AlphaScreen (SOS1 / KRAS G12D)
Note on pIC50: it is the negative log10 of concentration, concentration in mol/L.

Worked examples follow.
- molecule: "Cc1nc(N[C@H](C)c2cccc(C(F)(F)F)c2F)c2cn([C@@H]3CCOC3)c(=O)cc2n1"
  system.tested: "protein-protein interaction between SOS1 and KRAS G12D (Homo sapiens (Human))"
  result.number: 7.42
- molecule: "Cc1nc(N[C@H](C)c2cccc(C(F)(F)C3CCCO3)c2)c2cn(C3(C(F)F)CC3)c(=O)c(F)c2n1 (some centres unmarked)"
  system.tested: "protein-protein interaction between SOS1 and KRAS G12D (Homo sapiens (Human))"
  result.number: 8.52
- molecule: "Cc1nc(N[C@H](C)c2cccc(C(F)F)c2F)c2cn([C@H]3C[C@H](F)C3)c(=O)cc2n1"
  system.tested: "protein-protein interaction between SOS1 and KRAS G12D (Homo sapiens (Human))"
  result.number: 8.15
- molecule: "Cc1nc(N[C@H](C)c2cccc(C(C)(F)F)c2)c2cn(C3(C(F)F)CC3)c(=O)cc2n1"
  system.tested: "protein-protein interaction between SOS1 and KRAS G12D (Homo sapiens (Human))"
  result.number: 8.15
- molecule: "Cc1nc(N[C@H](C)c2cccc(C(F)F)c2C)c2cn(C3(C)CC3)c(=O)cc2n1"
  system.tested: "protein-protein interaction between SOS1 and KRAS G12D (Homo sapiens (Human))"
  result.number: 8.52

So what does the record say about pIC50 for "C[C@@H](Nc1ncnc2cc(=O)n(C3(C)CC3)cc12)c1cccc(C(C)(F)F)c1F" ?
8.15

Another molecule to look at: "Cc1nc(N[C@H](C)c2cccc(C(F)(F)F)c2C)c2cn(C3CCC3)c(=O)cc2n1"
7.85

Another molecule to look at: "Cc1nc(N[C@H](C)c2cccc(C(F)F)c2F)c2cn(C3CC(F)(F)C3)c(=O)cc2n1"
7.96

====

system.tested: protein-protein interaction between SOS1 and KRAS G12D (Homo sapiens (Human), UniProt Q07889)
assay.info: KRAS::SOS1 AlphaScreen Binding Assay
settings: Table 20; KRAS::SOS1 AlphaScreen (SOS1 / KRAS G12D)
Hi! Just check whether IC50 is below 9 nM. Below gives t, equal or above gives f.

Is 9 nM strictly greater than the molecule's reported IC50? molecule: Cc1nc(N[C@H](C)c2cccc(C(C)(F)F)c2F)c2cn(C3(C(F)F)CC3)c(=O)cc2n1 [I-54]
t

Another molecule to look at: Cc1nc(N[C@H](C)c2cccc(C(F)F)c2F)c2cn(C3(c4ccc(F)cc4)CC3)c(=O)cc2n1 [I-9]
f

Another molecule to look at: C[C@@H](Nc1ncnc2cc(=O)n(C3(C(F)(F)F)CC3)cc12)c1cccc(C(F)F)c1F [I-65]
f

Another molecule to look at: Cc1nc(N[C@H](C)c2cccc(C(F)F)c2C)c2cn(C34CCC(C(=O)N(C)C)(CC3)C4)c(=O)cc2n1 [I-24]
f

Another molecule to look at: C[C@@H](Nc1ncnc2cc(=O)n(C3(CF)CC3)cc12)c1cccc(C(C)(F)F)c1F [I-77]
t

====

system.tested: protein-protein interaction between SOS1 and KRAS G12D (Homo sapiens (Human), UniProt Q07889)
assay.info: KRAS::SOS1 AlphaScreen Binding Assay
settings: KRAS G12D::SOS1 AlphaScreen; measured without EDTA unless marked with an asterisk
The compounds listed here are annotated with their IC50.
Give the number; µM is assumed, so skip it.

- compound: "Cc1c(=O)n(C2(C(F)(F)F)CC2)cc2c(N[C@H](C)c3cccc(C(F)F)c3F)ncnc12"
  IC50 / µM: 0.013

So what does the record say about IC50 for "Cc1nc(N[C@H](C)c2cccc(C(F)(F)F)c2C)c2cn(C3(c4ccccc4)CCOCC3)c(=O)cc2n1" ?
0.023

Another compound to look at: Cc1c(=O)n(C2CC23CC3)cc2c(N[C@H](C)c3cccc(C(F)F)c3F)ncnc12 (stereo partly shown)
0.036

Another compound to look at: "Cc1c(=O)n([C@H]2C[C@H](F)C2)cc2c(N[C@H](C)c3cccc(C(F)F)c3F)ncnc12"
0.009

Another compound to look at: "Cc1nc(N[C@H](C)c2cccc(C(F)F)c2F)c2cn([C@]3(C(F)(F)F)CCOC3)c(=O)cc2n1"
0.005

Another compound to look at: "Cc1c(=O)n(C2(C(F)F)CC2)cc2c(N[C@H](C)c3cccc(C(F)F)c3F)ncnc12"
0.015

Another compound to look at: "Cc1c(=O)n(C23CC(C2)C3)cc2c(N[C@H](C)c3cccc(C(F)F)c3F)ncnc12"
0.012
